- System: NCI-H226
- protocolDetails: NCI tumour cell line growth inhibition, 48 h
Active and inactive are the calls of the source. Rule as the data show it: active = GI50 up to about 1.1 µM and inactive = higher.
reportedEndpoint: GI50

1. NC(=O)c1ccccc1NC(=O)C(=O)C(C(=O)c1ccc(Cl)c(Cl)c1)C1OC(=O)c2ccccc21 (stereo not given); 14.9 µM (inactive)
2. COC(=O)C(Cc1c(C2Nc3ccccc3C2CC(NC(C)=O)C(=O)OC)[nH]c2ccccc12)NC(C)=O (stereo not given); > 100 µM (inactive)
3. Nc1nc(N)c2cc(-c3ccccc3)cnc2n1; 16.5 µM (inactive)
4. C=C(COC(C)=O)CC(/C=C(\C)CC/C=C(\C)CO)OC(C)=O (stereo not given); > 100 µM (inactive)
5. CCOc1ccc2nc(NC(=O)c3c/c(=N\NC(=O)C[N+](C)(C)C)c4ccc(O)cc4o3)sc2c1; 3.25 µM (inactive)

Look at this compound and give its reported GI50. CN(CC#N)C1CCCC[C@H]1O (stereo not given in full)
> 100 µM (inactive)

Next: [N-]=[N+]=Nc1cc(=O)n(-c2ccccc2)c2ccccc12
> 100 µM (inactive)

Try this compound next: CCc1cn(C2CC(CO)C(CO)S2)c(=O)[nH]c1=O (stereo not given)
> 100 µM (inactive)

Lookup Cc1cc2nc(O)c(C(C)C(=O)c3ccc(Cl)cc3)nc2cc1C (stereo not given)
35 µM (inactive)

Same thing, different compound: CCC1C(c2cc(OC)c(OC)c(OC)c2)c2cc3c(cc2OC1N1CCCC1)OCO3 (stereo not given)
3.08 µM (inactive)

###

- System: MOLT-4
- protocolDetails: NCI tumour cell line growth inhibition, 48 h
The source made the active and inactive calls. Cut-off read from the data, not from the text of the source: active = GI50 up to about 1.1 µM and inactive = higher.
Entries and their GI50

Below, 2 molecules whose answers are already recorded.
1. CC(C)(C)OC(=O)NC(Cc1ccc(O)cn1)C(=O)O (stereo not given); > 100 µM (inactive)
2. O=C1OC(OC/C(Br)=C(\Br)COC2OC(=O)C(Cl)=C2Cl)C(Cl)=C1Cl (stereo not given); 0.807 µM (active)

# query: GI50 of entry CCOC(=O)CC(=O)ON(C)C(C)=O
> 100 µM (inactive)

Also N#Cc1ccc(C2ON=C(c3ccccc3)N2C23CC4CC(CC(C4)C2)C3)cc1 (stereo not given) ?
9.66 µM (inactive)

Input COc1ccc(/C=N/n2cnc3c(sc(=S)n3-c3ccccc3)c2=O)cc1
20.4 µM (inactive)

Entry Cc1cc2nc(O)c(C(C)C(=O)c3ccc(Cl)cc3)nc2cc1C (stereo not given) please
27.7 µM (inactive)

O=C1NCCCNCCCNCCCNC(=O)c2cccc1n2 ?
> 100 µM (inactive)

And the next one, CC1=CC23C(COC(=O)C24CO4)C(C(=O)O)=CC3C1C (stereo not given) ?
17.4 µM (inactive)

COC(=O)[C@]12CCC(C)(C)C[C@H]1C1=CC[C@@H]3[C@@]4(C)CC[C@H](OC5OC(CO)C(O)C(O)C5OC5OC(CO)C(O)C(O)C5O)C(C)(C)[C@@H]4CC[C@@]3(C)[C@]1(C)CC2 (stereo not given in full) , same question.
17.5 µM (inactive)

What about this molecule? CN(C)CC1CC/C(=C\c2ccc3c(c2)OCO3)C1=O (stereo not given)
2.98 µM (inactive)

Note, next up: O=[N+]([O-])/C(C(Cl)=C(Cl)Cl)=C1/OCCS1
17.9 µM (inactive)

And the next one, O=S(=O)(O)c1cc(S(=O)(=O)O)c2c(/N=N/c3cccc4ccccc34)c(O)ccc2c1 ?
> 100 µM (inactive)

Query O=C1C=CC(=O)C(CNc2ccc(C(=O)OCc3ccccc3)cc2)=C1 next
2 µM (inactive)

Let us now turn to [N-]=[N+]=Nc1cc(=O)n(-c2ccccc2)c2ccccc12
> 100 µM (inactive)

Try the molecule COc1ccc(-c2cc(-c3ccc(Nc4ccnc5cc(Cl)ccc45)cc3)[nH]c(=O)c2C#N)c2ccccc12
2.13 µM (inactive)

Follow-up entry: CC(=O)N/C(=C\c1cccc([N+](=O)[O-])c1)c1nc2ccc3c(c2[nH]1)C(=O)c1ccccc1C3=O
8.04 µM (inactive)

Further, for CCC1=NC(N/N=C/c2ccccc2O)=N/C1=C\c1ccccc1O ?
6.56 µM (inactive)

Same question, CC(C)(C)c1cc([N+](=O)[O-])cc([N+](=O)[O-])c1O [DINOTERB] this time
> 10 µM (inactive)

Again, but for COc1cccc(N2C(=O)CS(=O)(=O)C2c2cccc(Oc3ccccc3)c2)c1 (stereo not given)
21.3 µM (inactive)

Next molecule up: Cc1ccc(S(=O)(=O)OI(O)CC(F)(F)F)cc1
> 100 µM (inactive)
